Affinity ELISA CPE mutant ratio (1:9, pH 6.0/7.4) values for the binders below.
Target: T1, Axl protein (human, UniProt P30530 26-451)
T1 construct: extracellular domain; also called human Axl; hAxl
T1 sequence (looked up): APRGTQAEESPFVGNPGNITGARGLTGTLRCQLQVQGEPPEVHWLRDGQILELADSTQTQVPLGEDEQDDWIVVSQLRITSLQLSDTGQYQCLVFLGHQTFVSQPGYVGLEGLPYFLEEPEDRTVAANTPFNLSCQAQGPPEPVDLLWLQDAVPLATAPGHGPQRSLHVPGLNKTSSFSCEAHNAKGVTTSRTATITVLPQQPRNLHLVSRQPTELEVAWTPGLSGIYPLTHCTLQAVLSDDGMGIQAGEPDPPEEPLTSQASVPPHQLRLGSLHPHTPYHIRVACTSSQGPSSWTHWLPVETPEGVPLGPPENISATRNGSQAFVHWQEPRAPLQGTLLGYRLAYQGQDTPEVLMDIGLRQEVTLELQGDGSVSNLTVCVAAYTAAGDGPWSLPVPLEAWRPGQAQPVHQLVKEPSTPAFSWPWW
Test: ELISA, 1:9 dilution, pH 6.0 over pH 7.4
assay.readout: Affinity ELISA CPE mutant ratio (1:9, pH 6.0/7.4) (ratio)

>  <binder>
HC-S059T (antibody, V domains shown) VH: EVQLVQSGAEVKKPGATVKISCKVSGYSFTGHTMNWIRQPPGKGLEWIGLIKPSNGGTTYNQKFKGRVTISADKSISTAYLQWSSLKASDTAMYYCAHGHYESYFAMDYWGQGTLVTVSS VL: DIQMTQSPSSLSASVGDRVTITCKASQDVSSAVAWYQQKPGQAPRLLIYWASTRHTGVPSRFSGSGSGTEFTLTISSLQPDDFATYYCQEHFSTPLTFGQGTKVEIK

>  <value.measured>
1.93

$$$$
>  <binder>
HC-Y104E (antibody, V domains shown) VH: EVQLVQSGAEVKKPGATVKISCKVSGYSFTGHTMNWIRQPPGKGLEWIGLIKPSNGGTSYNQKFKGRVTISADKSISTAYLQWSSLKASDTAMYYCAHGHYESEFAMDYWGQGTLVTVSS VL: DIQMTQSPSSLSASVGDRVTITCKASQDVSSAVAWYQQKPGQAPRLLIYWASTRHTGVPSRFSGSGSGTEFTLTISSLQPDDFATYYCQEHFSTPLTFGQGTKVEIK

>  <value.measured>
1.8

$$$$
>  <binder>
HC-W110D (antibody, V domains shown) VH: EVQLVQSGAEVKKPGATVKISCKVSGYSFTGHTMNWIRQPPGKGLEWIGLIKPSNGGTSYNQKFKGRVTISADKSISTAYLQWSSLKASDTAMYYCAHGHYESYFAMDYDGQGTLVTVSS VL: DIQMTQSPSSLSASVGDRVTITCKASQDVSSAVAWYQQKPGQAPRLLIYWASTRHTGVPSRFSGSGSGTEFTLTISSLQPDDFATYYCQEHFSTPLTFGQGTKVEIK

>  <value.measured>
1.11

$$$$
>  <binder>
HC-H100P (antibody, V domains shown) VH: EVQLVQSGAEVKKPGATVKISCKVSGYSFTGHTMNWIRQPPGKGLEWIGLIKPSNGGTSYNQKFKGRVTISADKSISTAYLQWSSLKASDTAMYYCAHGPYESYFAMDYWGQGTLVTVSS VL: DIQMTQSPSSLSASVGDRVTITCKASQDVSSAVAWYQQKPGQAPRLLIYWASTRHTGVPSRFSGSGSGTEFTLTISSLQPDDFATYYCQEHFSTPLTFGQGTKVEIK

>  <value.measured>
1.18

$$$$
>  <binder>
HC-E102Y (antibody, V domains shown) VH: EVQLVQSGAEVKKPGATVKISCKVSGYSFTGHTMNWIRQPPGKGLEWIGLIKPSNGGTSYNQKFKGRVTISADKSISTAYLQWSSLKASDTAMYYCAHGHYYSYFAMDYWGQGTLVTVSS VL: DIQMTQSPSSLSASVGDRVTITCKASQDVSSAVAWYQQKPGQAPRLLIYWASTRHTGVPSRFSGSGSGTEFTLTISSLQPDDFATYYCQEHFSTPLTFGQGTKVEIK

>  <value.measured>
1.99

$$$$
